# Protocol Notes: Quantitative highthroughput screen to assess conditional lethalithy of P12 Ichikawa cells grown in Human Plasma-Like Medium with dialyzed fetal bovine serum (HPLM+ds) (AID 1963879); further: nearly all actives have a fitted effect of over 35% in size
# Condition Notes: ATP luminescence, 48 h; viability; series mostly up to 45.8 µM
Inconclusive results are not listed. The source made the active and inactive calls. The call rests on the fitted dose curve; in most records, active means well fitted cell-killing curve with a large enough effect; inconclusive means small, poorly fitted or top-dose-only effect; inactive means flat fitted curve, though single readings scatter.
Outcome codes: True for active, False for inactive

- C#Cc1cccc(Nc2ncnc3cc(OC)c(OCCCCCCC(=O)NO)cc23)c1: True
- CC(C)NCC(O)COc1ccc(CCOCC2CC2)cc1 (stereo not given): False
- CCC1=C(C)CN(C(=O)NCCc2ccc(S(=O)(=O)NC(=O)NC3CCC(C)CC3)cc2)C1=O (stereo not given): False
- Clc1ccc(C(Cn2ccnc2)OCc2c(Cl)cccc2Cl)c(Cl)c1 (stereo not given): False
- Cc1cc(Nc2cc(N3CCN(C)CC3)nc(C=Cc3ccccc3)n2)n[nH]1: True

---

# Protocol Notes: Viability qHTS for spleen associated tyrosine kinase inhibitor (SYKi) naive MV4-11 cells (AID 1963823); further: nearly all actives have a fitted effect of over 40% in size
# Condition Notes: MV4-11 AML viability, CellTiter-Glo luminescence, 72 h; series mostly up to 45 µM
Results filed as inconclusive are left out. Calls of active or inactive are those of the source. Calls come from the whole dose curve; as a rule, active = well fitted cell-killing curve with a large enough effect; inconclusive = small, poorly fitted or top-dose-only effect, or effect the other way; inactive = no such curve, though single readings can be large or run the other way.
Readout Name: viability (% of control)

• C=C1CC[C@@H]2[C@@](C)(CO[C@@H]3O[C@H](CO)C(O)[C@H](O)C3O)[C@H](O)CC[C@@]2(C)[C@@H]1CC/C(C)=C/CO (stereo partly drawn) = 93.2% [at 9.25 µM] (inactive)
• CC(=O)O[C@@H](C[C@@H]1C=C(C)C(=O)O1)[C@H](C)[C@H]1CCC2[C@@]3(C)CC[C@H](O[C@@H]4O[C@H](CO)[C@@H](O)[C@H](O)[C@H]4O[C@@H]4O[C@@H](C)[C@H](O)[C@@H](O)[C@H]4O)C(C)(C)C3CC[C@@]2(C)[C@@]12COC(=O)C2 (stereo partly drawn) = 81.6% [at 9.25 µM] (inactive)
• CC(C)=CCC[C@](C)(O[C@@H]1O[C@H](CO[C@@H]2O[C@@H](CO)[C@H](O)[C@H]2O[C@@H]2OC[C@@H](O)[C@H](O)[C@H]2O)[C@@H](O)[C@H](O)[C@H]1O)[C@H]1CC[C@]2(C)[C@@H]1[C@H](O)CC1[C@@]3(C)CC[C@H](O[C@@H]4O[C@H](CO)[C@@H](O)[C@H](O)[C@H]4O[C@@H]4O[C@H](CO)[C@@H](O)[C@H](O)[C@H]4O)C(C)(C)C3CC[C@]12C (stereo partly drawn) = 94.1% [at 9.25 µM] (inactive)

---

# Protocol Notes: Cellular viability qHTS for adrenocortical cancer (ACC) cell line SW-13 (AID 1963989);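 further: cells grown in serum-free medium with ITS supplement; on the % scale 0 is the no-effect control and ±100 the full control effect; nearly all actives have a fitted effect of over 65% in size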
# Condition Notes: SW-13 ACC cells viability, CellTiter-Glo, 48 h; hits give low values
Records with an inconclusive call do not appear.
Readout Name: activity (max response) (%)

• C[C@@H](c1ncncc1F)[C@](O)(Cn1cncn1)c1ccc(F)cc1F = -12.4
• CN(C)CCN1CCN(c2cccc(Cl)c2)C1=O = 10.1
• CCn1c(=O)c(-c2ccc(Cl)cc2Cl)cc2cnc(Nc3ccc(N4CCNCC4)c(F)c3)nc21 = -23.5
• CC1(C)CCC(c2ccc(Cl)cc2)=C(CN2CCN(c3ccc(C(=O)NS(=O)(=O)c4ccc(N[C@H](CCN5CCOCC5)CSc5ccccc5)c(S(=O)(=O)C(F)(F)F)c4)cc3)CC2)C1 = 11.1
• CC(C)(CO)[C@@H](O)C(=O)NCCC(=O)O = -17.7
• CC(C)C(C)(C)C(C)(C)C(C)(C)S = 7.64
• O=C(O)c1ccccc1OP(=O)(O)O = 16.4
• COc1ncc(Nc2ncc(C(C)N3CCN(S(C)(=O)=O)CC3)cc2-c2nc(C)nc(N)n2)cc1F (configuration not stated) = -11.9
• CC(C)NC(=O)c1ccc(C=O)cc1 = 10.9
• CCOC(=O)Cn1cccc1-c1nc(-c2ccc(OC)cc2)c(-c2ccc(OC)cc2)s1 = 9.49
• O=C(CCCl)NCc1ccccc1 = 9.65
• C[C@H](CCC(=O)O)[C@H]1CC[C@H]2[C@@H]3[C@H](O)C[C@@H]4C[C@H](O)CC[C@]4(C)[C@H]3CC[C@]12C = -16.1
• CCOC(=O)NNc1nncc2ccccc12 = 4.25
• C#CCN(C)CCCOc1ccc(Cl)cc1Cl = -17.3
• O=C(O)[C@@H]1[C@H]2C[C@H]3c4[nH]c5ccccc5c4CCN3C[C@@H]2CC[C@@H]1O = 3.73
• c1ccc(CCNc2nc(-c3ccccc3)cs2)cc1 = -5.01
• NCCC(O)(P(=O)(O)O)P(=O)(O)O = 6.05
• Cc1nnc(SCC2=C(C(=O)O)N3C(=O)[C@@H](NC(=O)Cn4cnnn4)[C@H]3SC2)s1 = 10
• CNC(=O)c1c(-c2ccc(F)cc2)oc2cc(N(CCO)S(C)(=O)=O)c(C3CC3)cc12 = -0.986
• COCCc1ccccn1 = -6
• O=c1c(-c2ccc(O)cc2)coc2cc(O[C@@H]3O[C@H](CO)[C@@H](O)[C@H](O)[C@H]3O)ccc12 = -7.43
• C[N+]1(C)CCCC(OC(=O)C(O)(c2ccccc2)c2ccccc2)C1 (configuration not stated) = -0.325
